Recorded values, source patent US7060725B2.

System: maximal electroshock seizure (MES-induced seizure spread)
Assay: Maximal electroshock seizure (MES) test, rat
Type: in vivo, rats
Conditions: oral, 30 mg/kg, @ 4 hrs
Quantity name: Rat Activity (oral) (number of rats active/total number of rats tested)

{"columns": ["Compound", "Test result"],
 "data": [
  ["CON(C)S(=O)(=O)OCC12OCC3OC(C)(C)OC3C1OC(C)(C)O2 (stereo not shown) [Compound 11]", "2/3 @ 4 hrs"],
  ["CC1(C)O[C@@H]2[C@@H](CO[C@@]3(COS(=O)(=O)[N-]C(=O)OCc4ccccc4)OC(C)(C)O[C@@H]23)O1.[Na+] [Compound 17]", "4/4 @ 4 hrs"],
  ["CC(C)Oc1ccccc1N1CCN(S(=O)(=O)OCC23OCC4OC(C)(C)OC4C2OC(C)(C)O3)CC1 (stereo not shown) [Compound 39]", "1/4 @ 4 hrs"],
  ["CC(C)(C)OC(=O)NS(=O)(=O)OC[C@@]12OC[C@H]3OC(C)(C)OC3[C@@H]1OC(C)(C)O2 (stereo partly shown) [Compound 14]", "4/4 @ 4 hrs"],
  ["COC(=O)CNS(=O)(=O)OCC12OCC3OC(C)(C)OC3C1OC(C)(C)O2 (stereo not shown) [Compound 5]", "1/4 @ 4 hrs"],
  ["CC1(C)OC2COC3(COS(=O)(=O)NC(c4ccccc4)c4ccccc4)OC(C)(C)OC3C2O1 (stereo not shown) [Compound 37]", "1/4 @ 4 hrs"],
  ["CC1(C)OC2[C@@H](CO[C@@]3(COS(=O)(=O)NO)OC(C)(C)O[C@@H]23)O1 (stereo partly shown) [Compound 9]", "1/4 @ 4 hrs"],
  ["CC1(C)OC2[C@@H](CO[C@@]3(COS(=O)(=O)NS(=O)(=O)C(F)(F)F)OC(C)(C)O[C@@H]23)O1 (stereo partly shown) [Compound 30]", "4/4 @ 4 hrs"],
  ["CC(=O)[N-]S(=O)(=O)OC[C@@]12OC[C@H]3OC(C)(C)OC3[C@@H]1OC(C)(C)O2.[Na+] (stereo partly shown) [Compound 18]", "3/4 @ 4 hrs"],
  ["CCC(=O)[N-]S(=O)(=O)OCC12OCC3OC(C)(C)OC3C1OC(C)(C)O2.[Na+] (stereo not shown) [Compound 19]", "4/4 @ 4 hrs"]
]}

* * *

Tested on: maximal electroshock seizure (MES-induced seizure spread)
Experiment: Maximal electroshock seizure (MES) test, mouse
Type: in vivo, mice
Settings: dosage 30, 100, 300 mg/kg
Quantity name: Mouse Activity

{"columns": ["Compound", "Tested target", "Test result"],
 "data": [
  ["CC(C)Oc1ccccc1N1CCN(S(=O)(=O)OCC23OCC4OC(C)(C)OC4C2OC(C)(C)O3)CC1 (stereo not drawn)", "maximal electroshock seizure (MES-induced seizure spread)", "No activity"],
  ["CCOC(=O)CCNS(=O)(=O)OCC12OCC3OC(C)(C)OC3C1OC(C)(C)O2 (stereo not drawn)", "maximal electroshock seizure (MES-induced seizure spread)", "No Activity"],
  ["CC1(C)OC2COC3(COS(=O)(=O)NC(=O)O[Si](c4ccccc4)(c4ccccc4)c4ccccc4)OC(C)(C)OC3C2O1 (stereo not drawn)", "maximal electroshock seizure (MES-induced seizure spread)", "No activity"],
  ["CC1(C)OC2COC3(COS(=O)(=O)NCCBr)OC(C)(C)OC3C2O1 (stereo not drawn)", "maximal electroshock seizure (MES-induced seizure spread)", "No Activity"],
  ["CC(C)(C)OC(=O)NS(=O)(=O)OC[C@@]12OC[C@H]3OC(C)(C)OC3[C@@H]1OC(C)(C)O2 (stereo partly drawn)", "maximal electroshock seizure (MES-induced seizure spread)", "No activity"],
  ["COC(=O)CNS(=O)(=O)OCC12OCC3OC(C)(C)OC3C1OC(C)(C)O2 (stereo not drawn)", "maximal electroshock seizure (MES-induced seizure spread)", "No activity"],
  ["CON(C)S(=O)(=O)OCC12OCC3OC(C)(C)OC3C1OC(C)(C)O2 (stereo not drawn)", "maximal electroshock seizure (MES-induced seizure spread)", "No activity"],
  ["CN(O)S(=O)(=O)OCC12OCC3OC(C)(C)OC3C1OC(C)(C)O2 (stereo not drawn)", "maximal electroshock seizure (MES-induced seizure spread)", "No activity"],
  ["CC1(C)OC2COC3(COS(=O)(=O)N[Si](c4ccccc4)(c4ccccc4)c4ccccc4)OC(C)(C)OC3C2O1 (stereo not drawn)", "maximal electroshock seizure (MES-induced seizure spread)", "No activity"]
]}
